# assayedSystem: PIM-1 (Homo sapiens, UniProt P11309)
# Construct: histidine tag (C); made in house
# Sequence (P11309 whole entry): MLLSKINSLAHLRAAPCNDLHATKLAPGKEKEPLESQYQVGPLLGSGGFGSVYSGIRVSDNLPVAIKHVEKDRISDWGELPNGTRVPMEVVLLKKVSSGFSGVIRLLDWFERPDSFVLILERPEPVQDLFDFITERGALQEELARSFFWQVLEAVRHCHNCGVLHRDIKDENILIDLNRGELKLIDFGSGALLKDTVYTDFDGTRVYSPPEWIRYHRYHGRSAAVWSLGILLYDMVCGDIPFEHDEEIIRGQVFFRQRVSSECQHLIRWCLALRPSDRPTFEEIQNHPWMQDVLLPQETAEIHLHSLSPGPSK
# assayOverview: PIM-1 biochemical assay (ADP Hunter)
# experimentalParameters: PIM1; read-out: PIM-1 activity, IC50 (semi-quantitative class)
# Source text: The biochemical assay to measure PIM-1 activity relies on the ADP Hunter assay kit (DiscoveRx Corp., Cat. #90-0077), that determines the amount of ADP as direct product of the kinase enzyme activity. The enzyme has been expressed and purified in-house as a recombinant human protein with a C-terminal histidine tag. The protein is active and stable. […]
measuredAttribute: IC50

Worked set:
molecule="COc1ncc2cc1NS(=O)(=O)c1cc(c(F)cc1F)C(=O)NCc1cncc(c1)-c1ccnc3ccc-2cc13 [compound 10]" assayedsystem="PIM-1 (Homo sapiens, UniProt P11309)" result="> 1000 nM"
molecule="COc1ncc2cc1NS(=O)(=O)c1cccc(c1)C(=O)N[C@@H]1CCCN(C1)c1ncnc3c1SC2=C3 [compound 76]" assayedsystem="PIM-1 (Homo sapiens, UniProt P11309)" result="100 to 1000 nM"

// next entry
Measured IC50 of COc1ncc2cc1NS(=O)(=O)c1cc(ccc1F)C(=O)NCc1cncc(c1)-c1ncnc3c1SC2=C3 [compound 52] : 100 to 1000 nM

====

# assayedSystem: PIM-1 (Homo sapiens)
# Construct: histidine tag (C); made in house
# assayOverview: PIM-1 biochemical assay (ADP Hunter)
# experimentalParameters: read-out: PIM-1 IC50 (in parentheses)
measuredAttribute: pIC50
Lab note: report pIC50 as minus log10 of the concentration in molar units, number only.

Worked set:
structuresmiles=COc1ncc2cc1NS(=O)(=O)c1cccc(c1)C(=O)NCC1=CC=C(S1)c1ccnc3c1SC2=C3C recordednumber=7.68
structuresmiles=COc1ncc2cc1NS(=O)(=O)c1ccc(F)c(c1)C(=O)NCC1=CC=C(S1)c1ncnc3c1SC2=C3C recordednumber=7.57

// next entry
The measured pIC50 that COc1ncc2cc1NS(=O)(=O)c1cccc(c1)C(=O)NCC1=C(C)C=C(S1)c1ncnc3c1SC2=C3 showed for PIM-1 (Homo sapiens) is 7.16

====

# assayedSystem: mTOR (Homo sapiens, UniProt P42345)
# Construct: purchased Invitrogen PV4754
# Sequence (P42345 1360-2549 limits assumed): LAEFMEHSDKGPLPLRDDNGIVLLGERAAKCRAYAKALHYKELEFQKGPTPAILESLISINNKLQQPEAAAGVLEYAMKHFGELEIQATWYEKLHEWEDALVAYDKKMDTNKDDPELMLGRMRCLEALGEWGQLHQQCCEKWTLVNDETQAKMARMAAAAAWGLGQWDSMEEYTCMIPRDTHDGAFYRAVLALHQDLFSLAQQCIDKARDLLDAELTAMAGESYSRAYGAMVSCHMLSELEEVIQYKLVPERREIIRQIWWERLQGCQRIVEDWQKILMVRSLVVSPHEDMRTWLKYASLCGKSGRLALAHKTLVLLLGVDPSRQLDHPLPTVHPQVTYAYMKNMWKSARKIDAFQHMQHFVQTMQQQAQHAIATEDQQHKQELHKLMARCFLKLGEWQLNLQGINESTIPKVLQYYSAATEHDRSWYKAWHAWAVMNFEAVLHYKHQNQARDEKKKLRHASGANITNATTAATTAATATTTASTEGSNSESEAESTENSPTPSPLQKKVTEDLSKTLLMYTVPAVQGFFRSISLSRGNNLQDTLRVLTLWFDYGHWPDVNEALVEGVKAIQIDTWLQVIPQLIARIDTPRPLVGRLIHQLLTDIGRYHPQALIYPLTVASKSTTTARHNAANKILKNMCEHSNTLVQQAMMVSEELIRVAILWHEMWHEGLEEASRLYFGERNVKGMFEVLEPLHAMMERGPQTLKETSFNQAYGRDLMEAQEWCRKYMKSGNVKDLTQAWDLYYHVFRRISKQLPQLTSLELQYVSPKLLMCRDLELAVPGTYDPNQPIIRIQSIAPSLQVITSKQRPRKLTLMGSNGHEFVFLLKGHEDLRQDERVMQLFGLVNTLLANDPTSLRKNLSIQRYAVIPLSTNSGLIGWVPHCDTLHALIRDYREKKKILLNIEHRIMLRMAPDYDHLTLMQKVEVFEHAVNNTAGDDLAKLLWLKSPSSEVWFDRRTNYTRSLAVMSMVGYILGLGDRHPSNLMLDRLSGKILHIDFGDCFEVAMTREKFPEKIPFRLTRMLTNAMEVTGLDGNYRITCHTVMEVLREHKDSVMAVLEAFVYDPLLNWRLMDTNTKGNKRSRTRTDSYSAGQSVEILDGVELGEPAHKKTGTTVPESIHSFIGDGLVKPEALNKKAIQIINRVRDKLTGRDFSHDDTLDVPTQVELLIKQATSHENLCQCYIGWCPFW
# assayOverview: mTOR assay (LanthaScreen kinase activity assay)
# Type: biochemical
# experimentalParameters: read-out: mTOR activity, IC50 (semi-quantitative class)
# Procedure: The enzymatic mTOR activity was measured using a LanthaScreen™ kinase activity assay (Invitrogen). […] The concentration of the assay components were the following: 0.24 nM mTOR kinase, 400 nM 4EBP1-GFP, […] and serial dilutions of the compound (inhibitor) to be evaluated. […] The TR-FRET value (a dimensionless number) was calculated as the ratio of the acceptor signal (GFP, emission at 520 nm) to the donor signal (terbium, emission at 495 nm). […]
Property: IC50; scope: individual compounds

compound="COc1ncc2cc1NS(=O)(=O)c1cccc(c1)C(=O)NCc1cccc(c1)-c1ccnc3ccc-2nc13 [compound 35]" measuredattribute=IC50 result="< 100 nM"
compound="COc1ncc2cc1NS(=O)(=O)c1cccc(c1)C(=O)NCC1=CC=C(S1)c1ccnc3[nH]c-2cc13 [compound 78]" measuredattribute=IC50 result="> 1000 nM"
compound="COc1ncc2cc1NS(=O)(=O)c1cccc(c1)C(=O)NCc1cncc(c1)-c1ncnc3sc-2cc13 [compound 21]" measuredattribute=IC50 result="> 1000 nM"

Measured IC50 of COc1ncc2cc1NS(=O)(=O)c1cc(ccc1F)C(=O)NCc1cncc(c1)-c1ncnc3c1SC2=C3 [compound 52] : > 1000 nM
